Data provenance: patent US20090325952A1

Target: PDE4B (human recombinant) (Homo sapiens, UniProt Q07343)
Construct: made in house; host or cells: Saccharomyces cerevisiae strain GL62 (PDE-deficient yeast)
Sequence (Q07343 1-564 isoform Q07343-2): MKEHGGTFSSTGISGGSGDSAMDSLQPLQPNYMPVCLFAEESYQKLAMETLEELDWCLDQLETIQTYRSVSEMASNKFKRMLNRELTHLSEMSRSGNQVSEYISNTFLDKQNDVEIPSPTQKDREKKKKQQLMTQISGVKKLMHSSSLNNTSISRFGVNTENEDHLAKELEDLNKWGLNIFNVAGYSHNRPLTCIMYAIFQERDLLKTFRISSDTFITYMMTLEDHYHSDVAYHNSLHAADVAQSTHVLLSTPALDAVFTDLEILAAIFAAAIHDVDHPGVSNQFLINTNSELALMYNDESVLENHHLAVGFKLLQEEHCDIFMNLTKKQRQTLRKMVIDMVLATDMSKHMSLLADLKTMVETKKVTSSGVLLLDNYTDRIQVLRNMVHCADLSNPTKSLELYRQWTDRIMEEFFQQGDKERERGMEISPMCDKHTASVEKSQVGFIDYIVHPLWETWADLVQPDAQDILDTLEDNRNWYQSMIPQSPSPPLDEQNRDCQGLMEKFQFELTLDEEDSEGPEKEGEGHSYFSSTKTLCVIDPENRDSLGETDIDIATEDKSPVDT
Test: Inhibition of PDE4B activity (FP and/or SPA assay)
Assay type: biochemical
Conditions: generally FP assay; one reading or average of n readings; read-out: PDE4B pIC50 (generally in FP assay) (±about 0.5) (converted)
Where a name gives a salt, the structure may show the parent alone.
Below: a set of entries, each annotated with reported IC50.

{"compound": "CCc1nc2c(cnn2CC)c(NC2CCOCC2)c1CNC(=O)c1ccc(CCCCOCCCCN2CCCC2)cc1", "system.under.test": "PDE4B (human recombinant) (Homo sapiens, UniProt Q07343)", "IC50": "~0.0631 nM"}
{"compound": "CCc1nc2c(cnn2CC)c(NC2CCOCC2)c1CNC(=O)c1ccc(CCCCOCCCCN(C)CCO)cc1", "system.under.test": "PDE4B (human recombinant) (Homo sapiens, UniProt Q07343)", "IC50": "~0.0398 nM"}
{"compound": "CCc1nc2c(cnn2CC)c(NC2CCOCC2)c1CNC(=O)c1ccc(NC(=O)CCCCCN(C)CCO)cc1", "system.under.test": "PDE4B (human recombinant) (Homo sapiens, UniProt Q07343)", "IC50": "~0.0794 nM"}

The reported IC50 value, PDE4B (human recombinant) (Homo sapiens, UniProt Q07343), for CCc1nc2c(cnn2CC)c(NC2CCOCC2)c1CNC(=O)c1ccc(NC(=O)CCCCCCCN2CCOCC2)cc1 reads ~0.158 nM

Entry CCc1nc2c(cnn2CC)c(NC2CCOCC2)c1CNC(=O)c1ccc(NC(=O)CCCCCCCN(C)CCO)cc1 [Example 1A1, dihydrochloride] ; assay system PDE4B (human recombinant) (Homo sapiens, UniProt Q07343); IC50 recorded at ~0.0501 nM

// compound CCc1nc2c(cnn2CC)c(NC2CCOCC2)c1CNC(=O)c1ccc(NC(=O)CCCCCCCN(C)CCO)cc1 [Example 1B] , assay PDE4B (human recombinant) (Homo sapiens, UniProt Q07343), IC50 value: ~0.0631 nM

----------
Biological target: PDE4D (human recombinant) (Homo sapiens, UniProt Q08499)
Sequence (Q08499 1-673 isoform Q08499-2): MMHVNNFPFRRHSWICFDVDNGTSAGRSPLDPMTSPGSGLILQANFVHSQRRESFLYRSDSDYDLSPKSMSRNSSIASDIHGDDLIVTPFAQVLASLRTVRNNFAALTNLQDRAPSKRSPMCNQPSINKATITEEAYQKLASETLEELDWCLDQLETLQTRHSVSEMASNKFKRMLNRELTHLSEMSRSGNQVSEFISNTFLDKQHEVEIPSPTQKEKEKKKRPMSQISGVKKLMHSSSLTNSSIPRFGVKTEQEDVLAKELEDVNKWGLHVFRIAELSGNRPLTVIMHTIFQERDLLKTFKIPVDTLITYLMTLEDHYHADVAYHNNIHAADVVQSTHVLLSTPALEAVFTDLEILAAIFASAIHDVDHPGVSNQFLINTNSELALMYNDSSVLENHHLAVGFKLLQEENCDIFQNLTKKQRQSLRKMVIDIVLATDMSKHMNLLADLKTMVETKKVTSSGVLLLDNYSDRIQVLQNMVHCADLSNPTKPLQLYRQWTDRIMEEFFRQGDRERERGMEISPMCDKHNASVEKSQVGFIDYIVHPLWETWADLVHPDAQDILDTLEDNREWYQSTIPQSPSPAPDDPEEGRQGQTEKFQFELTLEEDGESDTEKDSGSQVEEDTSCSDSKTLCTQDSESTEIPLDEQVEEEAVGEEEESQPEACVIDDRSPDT
Assay: Inhibition of PDE4D activity (FP assay)
Format: biochemical
Details: FP assay or generally similar assay; ±about 0.5 or more; read-out: PDE4D pIC50 (converted)
Counter-ions that a name gives are not always drawn.
Let's look at some compounds and their measured IC50.

Study these solved cases before continuing.
{"compound": "CCc1nc2c(cnn2CC)c(NC2CCOCC2)c1CNC(=O)c1ccc(CCCCOCCCCN(C)CCO)cc1", "system.under.test": "PDE4D (human recombinant) (Homo sapiens, UniProt Q08499)", "IC50": "~0.02 nM"}
{"compound": "CCc1nc2c(cnn2CC)c(NC2CCOCC2)c1CNC(=O)c1ccc(NC(=O)CCCCCCCN(C)CCO)cc1 [Example 1A1, dihydrochloride]", "system.under.test": "PDE4D (human recombinant) (Homo sapiens, UniProt Q08499)", "IC50": "~0.02 nM"}
{"compound": "CCc1nc2c(cnn2CC)c(NC2CCOCC2)c1CNC(=O)c1ccc(NC(=O)CCCCCCCN(C)CCO)cc1 [Example 1B]", "system.under.test": "PDE4D (human recombinant) (Homo sapiens, UniProt Q08499)", "IC50": "~0.0398 nM"}

For CCn1ncc2c(NC3CCOCC3)c(CNC(=O)c3ccc(NC(=O)CCCCCCCN(C)CCO)cc3)cnc21 the compound record lists IC50 as ~0.398 nM

Reported IC50 of CCc1nc2c(cnn2CC)c(NC2CCN(C(N)=O)CC2)c1CNC(=O)c1ccc(CCCCOCCCCN2CCOCC2)cc1 [Example 23A] : ~0.0316 nM

----------
Molecular target: PDE4B (human recombinant) (Homo sapiens, UniProt Q07343)
Construct: made in house; host or cells: Saccharomyces cerevisiae strain GL62 (PDE-deficient yeast)
Experiment: Inhibition of PDE4B activity (FP and/or SPA assay)
Type: biochemical
Conditions: generally FP assay; one reading or average of n readings; read-out: PDE4B pIC50 (generally in FP assay) (±about 0.5) (converted)
Where a name gives a salt, the structure may show the parent alone.
Each entry below lists one item and its recorded IC50 value.

Look over these answered cases.
{"compound": "CCc1nc2c(cnn2CC)c(NC2CCOCC2)c1CNC(=O)c1ccc(NC(=O)CCCCCCCN(C)CCO)cc1 [Example 1C]", "IC50": "~50.1 pM"}
{"compound": "CCn1ncc2c(NC3CCOCC3)c(CNC(=O)c3ccc(NC(=O)CCCCCCCN(C)CCO)cc3)cnc21", "IC50": "~251 pM"}
{"compound": "CCc1nc2c(cnn2CC)c(NC2CCOCC2)c1CNC(=O)c1ccc(CCCCOCCCCN2CCOCC2)cc1", "IC50": "~100 pM"}
{"compound": "CCc1nc2c(cnn2CC)c(NC2CCN(C(N)=O)CC2)c1CNC(=O)c1ccc(CCCCOCCCCN2CCOCC2)cc1 [Example 23A]", "IC50": "~100 pM"}
{"compound": "CCc1nc2c(cnn2CC)c(NC2CCOCC2)c1CNC(=O)c1ccc(NC(=O)CCCCCCCCCCN(C)CCO)cc1", "IC50": "~1000 pM"}

Lab book: IC50 of CCc1nc2c(cnn2CC)c(NC2CCOCC2)c1CNC(=O)c1ccc(NC(=O)CCCCCCCN2CCC[C@@H]2COC)cc1 [Example 11, trifluoroacetate] noted as ~50.1 pM

For this compound ( CCc1nc2c(cnn2CC)c(NC2CCOCC2)c1CNC(=O)c1ccc(NC(=O)CCCCCCCN2CCC[C@H]2COC)cc1 [Example 12, trifluoroacetate] ), measured IC50 is ~31.6 pM

So for CCc1nc2c(cnn2CC)c(NC2CCN(C(N)=O)CC2)c1CNC(=O)c1ccc(CCCCOCCCCN2CCOCC2)cc1 [Example 23] , the logged IC50 turned out to be ~79.4 pM
